experiment: Aqueous solubility of avanafil by HPLC at a range of pH values; type: physicochemical; details: phosphate buffer, aqueous buffer, thermodynamic from solid; Solution 3, 0.1M KH2PO4, pH 3.00
outcomeMeasure: solubility (µg/mL)

1) COc1ccc(CNc2nc(N3CCC[C@H]3CO)ncc2C(=O)NCc2ncccn2)cc1Cl 1700

* * *

experiment: Aqueous solubility of avanafil by HPLC at a range of pH values; type: physicochemical; settings: phosphate buffer, aqueous buffer, thermodynamic from solid; Solution 6, 0.1M KH2PO4, pH 6.00
outcomeMeasure: solubility (µg/mL)

1) COc1ccc(CNc2nc(N3CCC[C@H]3CO)ncc2C(=O)NCc2ncccn2)cc1Cl 1.28
